Property: glucoside; scope: individual compounds
Test system: β-Xylosidase derived from pectinase G
Assay: Reactivity toward various isoflavone glycosides (HPLC)
Assay type: biochemical
Set-up: unit not given here
Conditions: Reaction time 6 h; 55 °C, pH 4.0
Experimental: Diglycosidase was diluted with an acetate buffer of pH 4.0 to prepare a 0.75 AU/mL enzyme solution. […] The reaction was carried out at 55° C. and isolation of an aglycon isoflavone from an isoflavone glycoside in the reaction mixture was detected by HLPC at 0, 1, 3, and 6 hours of the reaction. […]
Answer as a number with no unit attached.

These recorded examples may help you get a feel for the data.
                            molecule_smiles                          target_system  readout_kind  number
0  COc1cc2c(=O)c(-c3ccc(O)cc3)coc2cc1O[C@@H]1O[C@H](COC(=O)CC(=O)O)[C@@H](O)[C@H](O)[C@H]1O  β-Xylosidase derived from pectinase G     glucoside    99.6
1  O=C(O)CC(=O)OC[C@H]1O[C@@H](Oc2ccc3c(=O)c(-c4ccc(O)cc4)coc3c2)[C@H](O)[C@@H](O)[C@@H]1O  β-Xylosidase derived from pectinase G     glucoside    96.7

Query string: So what does the record say about glucoside for COc1cc2c(=O)c(-c3ccc(O)cc3)coc2cc1O[C@@H]1O[C@H](COC(C)=O)[C@@H](O)[C@H](O)[C@H]1O ?
Result string: 100

* * *

This listing pairs molecules with measured Decomposition efficiency of genistin family in defatted soybean.
test system: Crude diglycosidase; experiment: Examination of temperature in the conversion into isoflavone aglycons by diglycosidase using soybean materials; type: biochemical, Penicillium multicolor IAM7153; conditions: 55° C., heat treatment of enzyme no, reaction time 1 h
# value in %; strip the unit string

In [3]: df
Out[3]:
                            molecule_smiles  number
0  O=c1c(-c2ccc(O)cc2)coc2cc(O[C@@H]3O[C@H](CO)[C@@H](O)[C@H](O)[C@H]3O)cc(O)c12     0.0
1  O=C(O)CC(=O)OC[C@H]1O[C@@H](Oc2cc(O)c3c(=O)c(-c4ccc(O)cc4)coc3c2)[C@H](O)[C@@H](O)[C@@H]1O    48.8
2      O=c1c(-c2ccc(O)cc2)coc2cc(O)cc(O)c12    50.5

Now let's try a different one.
Query string: Fill in: Decomposition efficiency of genistin family in defatted soybean of CC(=O)OC[C@H]1O[C@@H](Oc2cc(O)c3c(=O)c(-c4ccc(O)cc4)coc3c2)[C@H](O)[C@@H](O)[C@@H]1O is ___
Result string: 0.7

* * *

tested on: Crude diglycosidase; assay: Examination of substrate concentration in the conversion into isoflavone aglycons by diglycosidase using soybean materials; format: biochemical, Penicillium multicolor IAM7153; conditions: defatted soybean, substrate concentration 5%, heat treatment of enzyme no, reaction time 6 h;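 also: percent of the isoflavone family total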
READOUT KIND: Decomposition efficiency: ratio of each glycoside/aglycon within its isoflavone family

>>> df
                            molecule_smiles        target_system        result
0  COc1cc2c(=O)c(-c3ccc(O)cc3)coc2cc1O[C@@H]1O[C@H](CO)[C@@H](O)[C@H](O)[C@H]1O  Crude diglycosidase  not detected
1       COc1cc2c(=O)c(-c3ccc(O)cc3)coc2cc1O  Crude diglycosidase         80.5%
2  COc1cc2c(=O)c(-c3ccc(O)cc3)coc2cc1O[C@@H]1O[C@H](COC(=O)CC(=O)O)[C@@H](O)[C@H](O)[C@H]1O  Crude diglycosidase         19.5%
3  COc1cc2c(=O)c(-c3ccc(O)cc3)coc2cc1O[C@@H]1O[C@H](COC(C)=O)[C@@H](O)[C@H](O)[C@H]1O  Crude diglycosidase  not detected

* * *

Tested on: Crude diglycosidase
Assay: Examination of temperature in the conversion into isoflavone aglycons by diglycosidase using soybean materials
Type: biochemical, Penicillium multicolor IAM7153
Conditions: 30 °C; heat treatment of enzyme: no; 3 h
Description: Into 400 μL of 20 mM acetate buffer of pH 4.0 was suspended 50 mg of each of various soybean materials (roasted soy flour (manufactured by Fuji Shokuryo K.K.), soymilk (manufactured by Gitoh Shokuhin K.K.), defatted soybean (manufactured by Fuji Seiyu K.K.), concentrated soybean protein (manufactured by Fuji Seiyu K.K.)), whereby a substrate solution was prepared. Crude diglycosidase was diluted with 20 mM acetate buffer of pH 4.0 to be the glycosidase activity of 1.88 AU/mL. […]
Below, each entry is listed alongside its reported Decomposition efficiency of glycitin family in concentrated soybean protein.
Report only the number, with the unit % understood.

COMPOUND	NUMBER
COc1cc2c(=O)c(-c3ccc(O)cc3)coc2cc1O[C@@H]1O[C@H](COC(C)=O)[C@@H](O)[C@H](O)[C@H]1O [acetylglycitin, 6″-O-acetylglycitin]	33.4
COc1cc2c(=O)c(-c3ccc(O)cc3)coc2cc1O[C@@H]1O[C@H](COC(=O)CC(=O)O)[C@@H](O)[C@H](O)[C@H]1O [malonylglycitin, 6″-O-malonylglycitin]	0.5
COc1cc2c(=O)c(-c3ccc(O)cc3)coc2cc1O[C@@H]1O[C@H](CO)[C@@H](O)[C@H](O)[C@H]1O [glycitin]	39.1

Query string: Item COc1cc2c(=O)c(-c3ccc(O)cc3)coc2cc1O [glycitein] has what recorded Decomposition efficiency of glycitin family in concentrated soybean protein?
Result string: 26.9

* * *

Item-by-item account of Decomposition efficiency of glycitin family in roasted soy flour
Tested on: Crude diglycosidase
Experiment: Examination of pH in the conversion into isoflavone aglycons by diglycosidase using soybean materials
Format: biochemical, Penicillium multicolor IAM7153
Conditions: pH8.5, heat treatment of enzyme no, reaction time 3 h, 55° C.
Method: A substrate solution of 450 μL was prepared by suspending 50 mg of each soybean material (roasted soy flour (manufactured by Fuji Shokuryo K.K.), soymilk (manufactured by Gitoh Shokuhin K.K.), defatted soybean (manufactured by Fuji Seiyu K.K.), concentrated soybean protein (manufactured by Fuji Seiyu K.K.)), and adjusting the pH to 2 to 11 with hydrochloric acid or sodium hydroxide. […]
Note: the reply should be a number with no unit written.

>>> print(df.to_string())
                            molecule_smiles  number
0       COc1cc2c(=O)c(-c3ccc(O)cc3)coc2cc1O    40.1
1  COc1cc2c(=O)c(-c3ccc(O)cc3)coc2cc1O[C@@H]1O[C@H](COC(C)=O)[C@@H](O)[C@H](O)[C@H]1O    30.6

// next item, Decomposition efficiency of glycitin family in roasted soy flour requested
Query string: Tell me the measured Decomposition efficiency of glycitin family in roasted soy flour of COc1cc2c(=O)c(-c3ccc(O)cc3)coc2cc1O[C@@H]1O[C@H](CO)[C@@H](O)[C@H](O)[C@H]1O , please.
Result string: 29.3

* * *

tested on: Crude diglycosidase; assay: Examination of pH in the conversion into isoflavone aglycons by diglycosidase using soybean materials; format: biochemical, Penicillium multicolor IAM7153; details: pH4, heat treatment of enzyme no, reaction time 1 h, 55° C.
Decomposition efficiency of daidzin family in roasted soy flour listing for selected compounds.
The answer should be written as a number, with no unit following it.

In [3]: df
Out[3]:
                     molecule_smiles  number
0  O=c1c(-c2ccc(O)cc2)coc2cc(O)ccc12    65.6

Alright, here's another compound for you.
Query string: Tell me the measured Decomposition efficiency of daidzin family in roasted soy flour of CC(=O)OC[C@H]1O[C@@H](Oc2ccc3c(=O)c(-c4ccc(O)cc4)coc3c2)[C@H](O)[C@@H](O)[C@@H]1O , please.
Result string: 34.4

* * *

Collected Decomposition efficiency of daidzin family in roasted soy flour values appear next to each entry.
test system: Crude diglycosidase; test: Examination of pH in the conversion into isoflavone aglycons by diglycosidase using soybean materials; assay type: biochemical, Penicillium multicolor IAM7153; conditions: pH8.5, heat treatment of enzyme no, reaction time 6 h, 55° C.
The response must contain the number and no unit.

In [3]: df
Out[3]:
                            molecule_smiles        target_system  number
0  CC(=O)OC[C@H]1O[C@@H](Oc2ccc3c(=O)c(-c4ccc(O)cc4)coc3c2)[C@H](O)[C@@H](O)[C@@H]1O  Crude diglycosidase    38.0
1  O=c1c(-c2ccc(O)cc2)coc2cc(O[C@@H]3O[C@H](CO)[C@@H](O)[C@H](O)[C@H]3O)ccc12  Crude diglycosidase    10.2

Next compound, please.
Query string: Item under review: O=c1c(-c2ccc(O)cc2)coc2cc(O)ccc12 . Reported Decomposition efficiency of daidzin family in roasted soy flour?
Result string: 51.8

* * *

Tested on: Crude diglycosidase
Assay: Examination of temperature in the conversion into isoflavone aglycons by diglycosidase using soybean materials
Type: biochemical, Penicillium multicolor IAM7153
Details: 80 °C; heat treatment of enzyme: no; 6 h
Method: Into 400 μL of 20 mM acetate buffer of pH 4.0 was suspended 50 mg of each of various soybean materials (roasted soy flour (manufactured by Fuji Shokuryo K.K.), soymilk (manufactured by Gitoh Shokuhin K.K.), defatted soybean (manufactured by Fuji Seiyu K.K.), concentrated soybean protein (manufactured by Fuji Seiyu K.K.)), whereby a substrate solution was prepared. Crude diglycosidase was diluted with 20 mM acetate buffer of pH 4.0 to be the glycosidase activity of 1.88 AU/mL. […]
READOUT KIND: Decomposition efficiency of glycitin family in concentrated soybean protein

Query string: Entry COc1cc2c(=O)c(-c3ccc(O)cc3)coc2cc1O[C@@H]1O[C@H](CO)[C@@H](O)[C@H](O)[C@H]1O has what Decomposition efficiency of glycitin family in concentrated soybean protein?
Result string: 41.7%

The measured values listed here are drawn from patent US7118895B2.
